# SYSTEM NAME: eqBuChE (butyrylcholinesterase from equine serum) (Equus caballus, UniProt P81908)
# Sequence (P81908 whole entry): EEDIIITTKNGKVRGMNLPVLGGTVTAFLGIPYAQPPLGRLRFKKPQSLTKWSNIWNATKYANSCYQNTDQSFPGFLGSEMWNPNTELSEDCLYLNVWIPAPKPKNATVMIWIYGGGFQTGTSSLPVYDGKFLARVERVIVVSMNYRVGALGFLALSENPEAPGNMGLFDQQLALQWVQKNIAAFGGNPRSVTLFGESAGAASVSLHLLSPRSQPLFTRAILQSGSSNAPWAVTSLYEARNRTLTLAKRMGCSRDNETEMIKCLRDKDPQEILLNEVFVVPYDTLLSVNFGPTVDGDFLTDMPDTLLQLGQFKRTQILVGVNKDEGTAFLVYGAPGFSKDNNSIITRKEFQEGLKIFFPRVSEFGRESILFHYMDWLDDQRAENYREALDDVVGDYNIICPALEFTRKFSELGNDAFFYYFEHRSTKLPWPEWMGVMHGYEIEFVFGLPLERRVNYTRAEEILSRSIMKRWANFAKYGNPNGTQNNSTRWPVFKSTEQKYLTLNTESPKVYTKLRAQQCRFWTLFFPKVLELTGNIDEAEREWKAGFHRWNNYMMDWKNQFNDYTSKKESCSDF
# TEST NAME: biochemical
# Type: biochemical
# DETAILS: read-out: eqBuChE: % inhibition
OUTCOME MEASURE: inhibition at 50 µM

ITEM SMILES | SYSTEM NAME | OBSERVED MEASUREMENT
Oc1ccccc1Nc1nc(Nc2ccccc2O)c2ccccc2n1 | eqBuChE (butyrylcholinesterase from equine serum) (Equus caballus, UniProt P81908) | 52.3%
FC(F)(F)c1cccc(Nc2nc(Nc3cccc(C(F)(F)F)c3)c3ccccc3n2)c1 | eqBuChE (butyrylcholinesterase from equine serum) (Equus caballus, UniProt P81908) | 58.8%
Brc1ccccc1Nc1nc(Nc2ccccc2Br)c2ccccc2n1 | eqBuChE (butyrylcholinesterase from equine serum) (Equus caballus, UniProt P81908) | 30.6%
COc1ccc(Cl)cc1Nc1nc(Nc2cc(Cl)ccc2OC)c2ccccc2n1 | eqBuChE (butyrylcholinesterase from equine serum) (Equus caballus, UniProt P81908) | 26.6%
COc1ccc(Nc2nc(Nc3ccc(OC)cc3OC)c3ccccc3n2)c(OC)c1 | eqBuChE (butyrylcholinesterase from equine serum) (Equus caballus, UniProt P81908) | 87.5%
